Known TGI of a selection of compounds
# Tested on: SK-OV-3 ovarian
# Procedure summary: NCI tumour cell line growth inhibition, 48 h
Experimental readout: TGI

{"Compound": "c1ccc2cc3c(cc2c1)nc1ccccn13", "Experimental readout": "TGI", "Reading": "> 100 µM"}
{"Compound": "NCCSCCc1ccccc1", "Experimental readout": "TGI", "Reading": "> 100 µM"}
{"Compound": "CC(=O)c1sc(=N)n(-c2c(C)cccc2C)c1C", "Experimental readout": "TGI", "Reading": "> 100 µM"}
{"Compound": "COc1cc(Cl)cc(-c2nn(-c3cccc(NC(=O)Nc4ccc(Cl)c(C(F)(F)F)c4)c3)cc2-c2ccncc2)c1", "Experimental readout": "TGI", "Reading": "9.85 µM"}
{"Compound": "C=CCCCc1ccc(C(O)CCCCCCCCCCCC)o1 (stereo not drawn)", "Experimental readout": "TGI", "Reading": "37.2 µM"}
{"Compound": "CC1=C(/C=C/C(C)=C/C=C/C(C)=C/CO)C(C)(C)CCC1", "Experimental readout": "TGI", "Reading": "> 100 µM"}
{"Compound": "CC#CC(O)(C(=O)OC1CC2CCC(C1)N2C)C1CCCC1 (stereo not drawn)", "Experimental readout": "TGI", "Reading": "> 100 µM"}
{"Compound": "O=C(O)CCSC(=O)Nc1ccc(N=Nc2ccccc2)cc1", "Experimental readout": "TGI", "Reading": "> 100 µM"}
{"Compound": "CN1C(Cl)=NS(=O)(=O)c2ccccc21", "Experimental readout": "TGI", "Reading": "> 100 µM"}
{"Compound": "FC1=C2CCCCCC2SC1(F)F (stereo not drawn)", "Experimental readout": "TGI", "Reading": "> 100 µM"}
{"Compound": "C[C@]12CC[C@H](O)CC1=CC[C@@H]1C2CC[C@]2(C)Nc3c(cnn3-c3ccc(F)cc3)CC12 (stereo partly drawn)", "Experimental readout": "TGI", "Reading": "57.3 µM"}
{"Compound": "O=c1ccn(C2OC(CN(O)CCC3C(CO)OC(n4ccc(=O)[nH]c4=O)C3O)C(O)C2O)c(=O)[nH]1 (stereo not drawn)", "Experimental readout": "TGI", "Reading": "> 100 µM"}
{"Compound": "CC(C)(C)C1CCC2c3c([nH]c4ccccc34)C3C(=O)N(c4ccc5c(c4)C(=O)c4ccccc4C5=O)C(=O)C3C2C1 (stereo not drawn)", "Experimental readout": "TGI", "Reading": "> 100 µM"}
{"Compound": "CCc1cc2c(oc3cc(C)ccc32)c(=O)n1C", "Experimental readout": "TGI", "Reading": "> 10 µM"}
{"Compound": "COC(=O)[C@@H](C)C[C@H](Cc1ccccc1)NC(=O)c1csc([C@@H](C[C@H](C(C)C)N(C)C(=O)[C@H](C)NC(=O)[C@H]2CCCCN2C)OC(C)=O)n1", "Experimental readout": "TGI", "Reading": "> 25 µM"}
{"Compound": "COc1ccccc1CNC(=O)[C@H](Cc1ccc(O)cn1)NC(C)=O", "Experimental readout": "TGI", "Reading": "> 100 µM"}
{"Compound": "CC1=NN=C(N)NC1=CC(Sc1ccc(Cl)cc1)c1c(O)ccc2ccccc12 (stereo not drawn)", "Experimental readout": "TGI", "Reading": "67.4 µM"}
{"Compound": "O=C1C=CC(CC(=O)c2ccc3ccccc3c2)O1 (stereo not drawn)", "Experimental readout": "TGI", "Reading": "> 100 µM"}
{"Compound": "Cc1cc(-c2nc3cccc(F)c3s2)ccc1N", "Experimental readout": "TGI", "Reading": "> 100 µM"}
{"Compound": "COC(=O)C1=C(c2ccc3c(c2)OCO3)OC(c2cc(OC)c(OC)c(OC)c2)C1 (stereo not drawn)", "Experimental readout": "TGI", "Reading": "8.09 µM"}
{"Compound": "COP(=O)(OC)/C(=C\\c1cn(C(c2ccccc2)(c2ccccc2)c2ccccc2)cn1)NC(C)=O", "Experimental readout": "TGI", "Reading": "> 100 µM"}
{"Compound": "CC1=C(C(=O)Nc2ccc([N+](=O)[O-])cc2)C(c2ccccc2F)C(C(=O)Nc2ccc([N+](=O)[O-])cc2)=C(C)N1", "Experimental readout": "TGI", "Reading": "79.7 µM"}
{"Compound": "COc1ccc(OC)c(Nc2nc(-c3c(C)nc4sccn34)cs2)c1", "Experimental readout": "TGI", "Reading": "> 100 µM"}
{"Compound": "COC(=O)C1=CC2OC1(C)CCC2=O (stereo not drawn)", "Experimental readout": "TGI", "Reading": "> 100 µM"}
{"Compound": "CC(Br)C(=O)Nc1ccc(C(=O)O)c(O)c1 (stereo not drawn)", "Experimental readout": "TGI", "Reading": "> 100 µM"}
{"Compound": "CO[C@H]1CC(c2ccc[nH]2)=N[C@]12O[C@@H](C)C[C@@H]1CCCCCCCc3ccc([nH]3)[C@H]12", "Experimental readout": "TGI", "Reading": "18.9 µM"}
{"Compound": "COc1ccc(NC2CC(C)N(C(=O)c3ccccc3)O2)cc1 (stereo not drawn)", "Experimental readout": "TGI", "Reading": "> 10 µM"}
{"Compound": "N#CCCN(CCN(CCC#N)C(=O)Nc1ccccc1)C(=O)Nc1ccccc1", "Experimental readout": "TGI", "Reading": "> 100 µM"}
{"Compound": "CCOC(=O)C1=C(Nc2ccc(Cl)c(Cl)c2)OC/C1=N\\NS(=O)(=O)c1ccc(C)cc1", "Experimental readout": "TGI", "Reading": "> 100 µM"}
{"Compound": "CSc1cccc(NC(=O)OC2CCCCCCCCCCC2)c1", "Experimental readout": "TGI", "Reading": "57.9 µM"}
{"Compound": "O=c1[nH]c2c(c(=O)[nH]1)SSC2", "Experimental readout": "TGI", "Reading": "50.9 µM"}
{"Compound": "COc1ccc(C2=CC(c3ccc(OC)c(OC)c3)c3c(c4ccccc4oc3=O)O2)cc1OC (stereo not drawn)", "Experimental readout": "TGI", "Reading": "> 100 µM"}
{"Compound": "CC(=O)C1=CCC2c3[nH]c4ccccc4c3CCN2C1 (stereo not drawn)", "Experimental readout": "TGI", "Reading": "75.6 µM"}
{"Compound": "Nc1n[nH]c(CCc2nc(N)n[nH]2)n1", "Experimental readout": "TGI", "Reading": "> 100 µM"}
{"Compound": "CC(C)CCN[C@@H]1CCc2cc(O)c(N3CC(=O)NS3(=O)=O)c(F)c2C1", "Experimental readout": "TGI", "Reading": "> 100 µM"}
{"Compound": "CCN(CC)CCSCCCNc1c2ccc(Cl)cc2nc2ccc(OC)cc12", "Experimental readout": "TGI", "Reading": "3.92 µM"}
{"Compound": "CCN(CC)CCN(C(=O)c1ccc(F)cc1)c1ccccc1N", "Experimental readout": "TGI", "Reading": "> 10 µM"}
{"Compound": "CC(=O)OCC(Br)C1(C)CCC(C(C)(C)Br)O1 (stereo not drawn)", "Experimental readout": "TGI", "Reading": "> 100 µM"}
{"Compound": "OC(C/C=N/Nc1ccccc1)(C(F)(F)Cl)C(F)(F)Cl", "Experimental readout": "TGI", "Reading": "> 10 µM"}
{"Compound": "Cc1ccc2c(=O)cc(-c3sc4ccccc4c3C)[nH]c2n1", "Experimental readout": "TGI", "Reading": "71.4 µM"}
{"Compound": "COc1cc(C(=O)Oc2c(C#N)sc3c2c(=O)n(-c2ccccc2)c(=S)n3-c2ccccc2)cc(OC)c1OC", "Experimental readout": "TGI", "Reading": "> 100 µM"}
{"Compound": "Cc1ccccc1-n1c(C)nc(-c2ccccc2)cc1=O", "Experimental readout": "TGI", "Reading": "> 100 µM"}
{"Compound": "CCOC(=O)c1c(N2CCCC2)[nH]c(=O)c(C(c2cccs2)c2c(O)c(C(=O)OCC)c(N3CCCC3)[nH]c2=O)c1O", "Experimental readout": "TGI", "Reading": "> 100 µM"}
